measured_target: HLA-DRB1*0101 (human)
procedure_details: competition binding
condition_parameters: modification not given
quantity_measured: IC50 (nM)
Write the number in nM without appending the unit.

Look over these answered cases.
HKWEAAHVAEQLRAY [p30] : 29
HQYAYDGKDYIALKE [p23] : 406
MRYFFTSVSRPGRGE [p2*] : 2
TELVETRPAGDGTFQ [p44] : 4470
LSFYPAEITLTWQRD [p41] : 50

### Prompt Reported IC50, binder VEWLRRYLENGKETL [p35*] : ____
### Response 598

### Prompt Given the entry ADMAAQTTKHKWEAA [p29] , report its measured IC50.
### Response 40000

### Prompt Form field: reported IC50 of GTLRGYYNQSEAGSH [p15*]
### Response 406

### Prompt Any idea what IC50 was measured for HSMRYFFTSVSRPGR [p1*] ?
### Response 3

### Prompt Give the measured IC50 of RAYLEGTCVEWLRRY [p33] .
### Response 25

### Prompt Consider the binder RKVKAHSQTHRVDLG [p12] and give its measured IC50.
### Response 21600

### Prompt Item CDVGSDWRFLRGYHQ [p19] has what recorded IC50?
### Response 9

### Prompt Record request: IC50 value, item HTVQRMYGCDVGSDW [p17*]
### Response 35
